Where do these numbers come from? They come from PubChem BioAssay AID1918994.

system: 292921-168-R-J2-PDC complex spheroid growth; assay: Anticancer human tumor 292921-168-R-J2-PDC patient-derived pancreatic carcinoma cell line growth inhibition [AhR]; conditions: second compound 1 µM; first compound 1 µM; stronger effect = lower value
# strict inequality: viability, T/C < 40% yields Yes, everything else yields No

[
  {
    "Compound": "O=C(C=Cc1cccc(S(=O)(=O)Nc2ccccc2)c1)NO + CC(CO)NC(=O)c1cc(-c2ccc(Cl)cc2)nn(-c2cnn(C)c2)c1=O",
    "Cat": "Yes"
  },
  {
    "Compound": "CC1COCCN1c1cc(-c2ccnn2C)c2ccnc(-c3ccn[nH]3)c2n1 (stereo not given) + Cc1ccccc1N=Nc1ccc(NC(=O)c2ccnn2C)c(C)c1",
    "Cat": "Yes"
  },
  {
    "Compound": "COc1ccc([C@@H](O)c2cc(-c3ncnc4cc(N5CCOCC5)ccc34)c(F)cc2Cl)nn1 + CC(CO)NC(=O)c1cc(-c2ccc(Cl)cc2)nn(-c2cnn(C)c2)c1=O",
    "Cat": "No"
  },
  {
    "Compound": "CC1(C)CCC(CN2CCN(c3ccc(C(=O)NS(=O)(=O)c4ccc(NCC5CCOCC5)c([N+](=O)[O-])c4)c(Oc4cnc5[nH]ccc5c4)c3)CC2)=C(c2ccc(Cl)cc2)C1 + CC(CO)NC(=O)c1cc(-c2ccc(Cl)cc2)nn(-c2cnn(C)c2)c1=O",
    "Cat": "No"
  },
  {
    "Compound": "COc1cccc2c1C(=O)c1c(O)c3c(c(O)c1C2=O)CC(O)(C(=O)CO)CC3OC1CC(N)C(O)C(C)O1 (stereo not given) + CC(CO)NC(=O)c1cc(-c2ccc(Cl)cc2)nn(-c2cnn(C)c2)c1=O",
    "Cat": "Yes"
  }
]

====

Test system: 292921-168-R-J2-PDC complex spheroid growth
Assay: Anticancer human tumor 292921-168-R-J2-PDC cell line growth inhibition [AhR];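 also: spheroids exposed to compounds for seven days after three days of growth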
Settings: second compound 10 µM; first compound 0.000949 µM; stronger effect = lower value
Text: Multicellular complex tumor spheroid response to aryl hydrocarbon receptor antagonists in combination with a variety of drugs and investigational agents in selected tumor cell lines […] Compounds. […] If the clinical Cmax for an agent had not been determined, the highest concentration tested was 10 microM (Table 1). […]

[
  {
    "Molecule": "CC(C)CC(NC(=O)C(Cc1ccccc1)NC(=O)c1cnccn1)B(O)O (stereo unspecified) + CC(CO)NC(=O)c1cc(-c2ccc(Cl)cc2)nn(-c2cnn(C)c2)c1=O",
    "viability, T/C [%]": 77.6
  },
  {
    "Molecule": "CCc1c2c(nc3ccc(O)cc13)-c1cc3c(c(=O)n1C2)COC(=O)[C@]3(O)CC + Cc1ccccc1N=Nc1ccc(NC(=O)c2ccnn2C)c(C)c1",
    "viability, T/C [%]": 47.4
  },
  {
    "Molecule": "Nc1ncn(C2CC(O)C(CO)S2)c(=O)n1 (stereo unspecified) + Cc1cncc(-c2nc(NCCc3c[nH]c4ccccc34)c3ncn(C(C)C)c3n2)c1",
    "viability, T/C [%]": 50.1
  },
  {
    "Molecule": "Nc1ncn(C2CC(O)C(CO)S2)c(=O)n1 (stereo unspecified) + CC(CO)NC(=O)c1cc(-c2ccc(Cl)cc2)nn(-c2cnn(C)c2)c1=O",
    "viability, T/C [%]": 71.9
  },
  {
    "Molecule": "CCc1c2c(nc3ccc(O)cc13)-c1cc3c(c(=O)n1C2)COC(=O)[C@]3(O)CC + Cc1cncc(-c2nc(NCCc3c[nH]c4ccccc34)c3ncn(C(C)C)c3n2)c1",
    "viability, T/C [%]": 36.7
  },
  {
    "Molecule": "CC(C)CC(NC(=O)C(Cc1ccccc1)NC(=O)c1cnccn1)B(O)O (stereo unspecified) + Cc1ccccc1N=Nc1ccc(NC(=O)c2ccnn2C)c(C)c1",
    "viability, T/C [%]": 59.9
  }
]
